Target: Poly [ADP-ribose] polymerase 1 (Homo sapiens)
pIC50: −log10 of the molar value.
Measured Property: pIC50

IN: // lookup pIC50 | system=Poly [ADP-ribose] polymerase 1 (Homo sapiens) | key= O=C(c1cc(Cc2n[nH]c(=O)c3ccccc23)ccc1F)N1CCn2c(nnc2-c2ccc(Br)o2)C1
OUT: > 12.00

###

Molecular target: Poly [ADP-ribose] polymerase 1 (Homo sapiens, UniProt P09874)
Sequence (P09874 whole entry): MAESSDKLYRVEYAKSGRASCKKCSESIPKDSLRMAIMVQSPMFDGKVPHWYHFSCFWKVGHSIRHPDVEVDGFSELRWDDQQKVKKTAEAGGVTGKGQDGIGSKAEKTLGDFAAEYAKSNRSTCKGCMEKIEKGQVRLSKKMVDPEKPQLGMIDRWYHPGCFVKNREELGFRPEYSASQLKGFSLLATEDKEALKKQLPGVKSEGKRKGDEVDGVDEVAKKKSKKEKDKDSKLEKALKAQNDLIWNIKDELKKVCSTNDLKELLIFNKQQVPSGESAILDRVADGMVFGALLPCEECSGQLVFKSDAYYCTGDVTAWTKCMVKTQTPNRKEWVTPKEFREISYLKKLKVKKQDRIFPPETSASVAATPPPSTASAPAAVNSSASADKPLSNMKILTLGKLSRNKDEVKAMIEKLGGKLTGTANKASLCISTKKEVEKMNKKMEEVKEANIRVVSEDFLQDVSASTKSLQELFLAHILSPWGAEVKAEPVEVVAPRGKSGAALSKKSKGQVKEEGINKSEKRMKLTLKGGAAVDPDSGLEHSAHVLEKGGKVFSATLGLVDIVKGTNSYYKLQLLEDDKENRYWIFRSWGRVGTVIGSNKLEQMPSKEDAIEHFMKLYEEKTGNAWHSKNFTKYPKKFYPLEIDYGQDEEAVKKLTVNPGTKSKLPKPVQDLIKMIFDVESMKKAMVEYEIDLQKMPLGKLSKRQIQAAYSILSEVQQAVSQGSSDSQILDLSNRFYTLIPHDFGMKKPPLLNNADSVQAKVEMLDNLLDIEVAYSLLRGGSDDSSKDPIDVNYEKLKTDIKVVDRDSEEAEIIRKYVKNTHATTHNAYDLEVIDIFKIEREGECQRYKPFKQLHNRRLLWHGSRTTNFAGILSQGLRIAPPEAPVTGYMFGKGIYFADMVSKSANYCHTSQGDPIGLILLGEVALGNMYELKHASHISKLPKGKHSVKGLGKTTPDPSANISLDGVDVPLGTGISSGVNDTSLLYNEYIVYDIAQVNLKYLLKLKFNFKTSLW
Experiment: Inhibition of human recombinant PARP1 expressed in Escherichia coli BL21(DE3) incubated for 1 hr by ELISA assay
Item-by-item account of pIC50
Just the number, please; pIC50 means minus log10 of the concentration in mol/L.

Molecule: CC(C)C(C)N1CCN(C(=O)c2cc(Cn3c(=O)[nH]c(=O)c4ccccc43)ccc2F)CC1=O (configuration not stated)
pIC50: 8.05

Now, please, on to the next molecule.
IN: If you can, please state the reported pIC50 value of CCCCN1CCN(C(=O)c2cc(Cn3c(=O)[nH]c(=O)c4ccccc43)ccc2F)CC1=O .
OUT: 8.57

###

Target: Poly [ADP-ribose] polymerase 2 (Homo sapiens, UniProt Q9UGN5)
Sequence (Q9UGN5 whole entry): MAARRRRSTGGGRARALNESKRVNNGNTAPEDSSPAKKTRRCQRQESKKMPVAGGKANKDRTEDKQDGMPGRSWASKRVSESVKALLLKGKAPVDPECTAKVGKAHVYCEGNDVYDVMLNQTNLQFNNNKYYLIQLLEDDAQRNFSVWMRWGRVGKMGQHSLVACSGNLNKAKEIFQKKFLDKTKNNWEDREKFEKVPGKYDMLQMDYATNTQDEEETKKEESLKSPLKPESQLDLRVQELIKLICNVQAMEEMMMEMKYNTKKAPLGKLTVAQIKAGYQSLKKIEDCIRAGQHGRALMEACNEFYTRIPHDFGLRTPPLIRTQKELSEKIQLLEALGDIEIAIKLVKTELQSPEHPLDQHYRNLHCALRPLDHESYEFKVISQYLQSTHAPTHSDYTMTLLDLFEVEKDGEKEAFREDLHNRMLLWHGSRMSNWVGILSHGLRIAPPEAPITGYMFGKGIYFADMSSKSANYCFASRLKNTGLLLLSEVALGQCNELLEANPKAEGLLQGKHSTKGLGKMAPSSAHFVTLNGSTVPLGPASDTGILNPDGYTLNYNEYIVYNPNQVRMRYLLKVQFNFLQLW
Experiment: Inhibition of human recombinant PARP2 expressed in Escherichia coli BL21(DE3) incubated for 1 hr by ELISA assay
Item-by-item account of IC50
Express the reported value numerically, then name its unit.

Check out these entries, answers already filled in.
Compound: CCN1CCN(C(=O)c2cc(Cn3c(=O)[nH]c(=O)c4ccccc43)ccc2F)CC1=O
IC50: 1.22 nM
--
Compound: CC(C1CCCC1)N1CCN(C(=O)c2cc(Cn3c(=O)[nH]c(=O)c4ccccc43)ccc2F)CC1=O (stereo not given)
IC50: 0.22 nM
--
Compound: CCC(CC)N1CCN(C(=O)c2cc(Cn3c(=O)[nH]c(=O)c4ccccc43)ccc2F)CC1=O
IC50: 0.79 nM
--
Compound: CC(C1CCCCC1)N1CCN(C(=O)c2cc(Cn3c(=O)[nH]c(=O)c4ccccc43)ccc2F)CC1=O (stereo not given)
IC50: 0.26 nM
--
Compound: CC(C)(C)CN1CCN(C(=O)c2cc(Cn3c(=O)[nH]c(=O)c4ccccc43)ccc2F)CC1=O
IC50: 0.33 nM

IN: // lookup IC50 | system=Poly [ADP-ribose] polymerase 2 (Homo sapiens, UniProt Q9UGN5) | key= CN1CCN(C(=O)c2cc(Cn3c(=O)[nH]c(=O)c4ccccc43)ccc2F)CC1=O
OUT: 5.62 nM

IN: // lookup IC50 | system=Poly [ADP-ribose] polymerase 2 (Homo sapiens, UniProt Q9UGN5) | key= CC(C)C(C)N1CCN(C(=O)c2cc(Cn3c(=O)[nH]c(=O)c4ccccc43)ccc2F)CC1=O (stereo not given)
OUT: 1.86 nM

###

Molecular target: Poly [ADP-ribose] polymerase 1 (Homo sapiens, UniProt P09874)
Assay: Inhibition of human recombinant PARP1 expressed in Escherichia coli BL21(DE3) incubated for 1 hr by ELISA assay
Measured Property: pIC50
Just the number, please; pIC50 means minus log10 of the concentration in mol/L.

Compound: CCC(C)CN1CCN(C(=O)c2cc(Cn3c(=O)[nH]c(=O)c4ccccc43)ccc2F)CC1=O (stereo not given)
pIC50: 8.52

Compound: CC(C)(C)CN1CCN(C(=O)c2cc(Cn3c(=O)[nH]c(=O)c4ccccc43)ccc2F)CC1=O
pIC50: 8.46

Compound: CCCCCN1CCN(C(=O)c2cc(Cn3c(=O)[nH]c(=O)c4ccccc43)ccc2F)CC1=O
pIC50: 8.57

IN: // lookup pIC50 | system=Poly [ADP-ribose] polymerase 1 (Homo sapiens, UniProt P09874) | key= O=C(c1cc(Cn2c(=O)[nH]c(=O)c3ccccc32)ccc1F)N1CCN(C2CCCC2)C(=O)C1
OUT: 8.85

IN: // lookup pIC50 | system=Poly [ADP-ribose] polymerase 1 (Homo sapiens, UniProt P09874) | key= CN(C)CCN1CCN(C(=O)c2cc(Cn3c(=O)[nH]c(=O)c4ccccc43)ccc2F)CC1=O
OUT: 8.62

meta.source: ChEMBL document CHEMBL5370623
